System: SW-620 colon
Parameter measured: GI50

>>> result("C[C@@H]1CC[C@@H]2[C@@H]1[C@H](OC(=O)c1ccc3ccccc3c1)[C@]1(C3CCCCC3)C[C@@H](OC(=O)CO)[C@@]2(C)O1")
"13 µM"
>>> result("OCc1ncc(-c2ccccc2)s1")
"> 100 µM"
>>> result("O=C(Nc1cc(C(F)(F)F)cc(C(F)(F)F)c1)Nc1ccc(OCc2nnc(-c3ccc(Cl)cc3)o2)c(F)c1")
"2.66 µM"
>>> result("O=c1oc2c(cc1-c1ccccc1)C(O)Oc1ccccc1-2 (stereo not drawn)")
"4.37 µM"
>>> result("COc1ccccc1Nc1nc2ccccc2c2occc12")
"22.6 µM"
>>> result("COc1ccc2c(c1)C(=O)c1c-2n(CCCN=[N+]=[N-])c(=O)c2cc(N)ccc12")
"> 100 µM"
>>> result("N#CSCC1CC(O)(c2ccccc2)CC(c2ccc(Cl)cc2)O1 (stereo not drawn)")
"1.83 µM"
>>> result("O=C(c1ccccc1)c1ccc(O)c2ncccc12")
"4.07 µM"
>>> result("C=C1[C@@H](O)C[C@H]2C(C)(C)C[C@H](Cl)C[C@]2(C)[C@H]1C[C@H](O)[C@H]1CC(=O)NC1=O")
"0.0114 µM"
>>> result("CSC(=NC#N)S/C=C/C(=O)c1cccc2ccccc12")
"36.9 µM"
>>> result("OCC#CCCCCOCC#Cc1ccccc1C#CCOCCCCC#CCO")
"21.9 µM"
>>> result("c1ccc2c(-c3cnn4cc(-c5ccc(N6CCNCC6)cc5)cnc34)ccnc2c1")
"0.335 µM"
>>> result("COc1ccc(C2CC(c3cccc(OC)c3)=NN2C(=O)c2cc(OC)c(OC)c(OC)c2)cc1 (stereo not drawn)")
"0.881 µM"

----------
Test system: ACHN renal
Assay: NCI tumour cell line growth inhibition, 48 h
Parameter measured: TGI

>>> result("O=C1[C@@H]2C(c3ccncc3)=NO[C@@H]2C(=O)N1c1ccc(Cc2ccc(N3C(=O)[C@H]4C(c5ccncc5)=NO[C@H]4C3=O)cc2)cc1")
"> 100 µM"
>>> result("CCCCCCCC(=O)NS(=O)(=O)c1ccccc1")
"> 100 µM"
>>> result("N=C1N=C(N)S/C1=C\\c1ccc2ncccc2c1")
"> 25 µM"
>>> result("CC(=O)c1c2c(cc3c1CC1(C3)Cc3cc4c(c(C(C)=O)c3C1)CCCC4)CCCC2")
"> 100 µM"
>>> result("CNC(=O)OCc1nc(N=[N+]=[N-])n(C)c1COC(=O)NC")
"> 100 µM"
>>> result("Cc1ncc(COP(=O)(O)O)c(C)c1O")
"> 100 µM"

----------
System: UO-31 renal
Assay: NCI tumour cell line growth inhibition, 48 h
Parameter measured: TGI

>>> result("CC(=O)OC1CC2C(C)(C)OC(=O)CC(OC(C)=O)[C@]2(C)C2CCC3(C)C(=CCC3c3ccoc3)[C@]12C (stereo not given in full)")
"> 100 µM"
>>> result("CN(C)CCC(/C=C/c1ccccc1)=N\\Nc1ccc(Cl)cc1")
"4.24 µM"
>>> result("Cc1c(-c2ccccc2)c(C#N)c2nnn(C)c(=O)n12")
"> 100 µM"
>>> result("CCOC(=O)Nc1ccc(C(=O)/C=C/c2ccccc2)cc1")
"> 100 µM"
>>> result("Cc1ccc2nc(-c3ccc(-c4nc5ccc(C)cc5o4)c(O)c3)oc2c1")
"> 100 µM"
>>> result("CC1=NN(C(=O)CC(=O)Nc2ccc(Cl)cc2)C(=O)C1N=Nc1ccc(S(=O)(=O)c2ccc(N=NC3C(=O)N(C(=O)CC(=O)Nc4ccc(Cl)cc4)N=C3C)cc2)cc1 (stereo not given)")
"> 100 µM"
>>> result("O=C(NCCNC(=O)c1ccc(F)cc1)Nc1ccc(-n2cc(-c3ccncc3)c(-c3ccc(Cl)c(O)c3)n2)cc1")
"> 100 µM"
>>> result("COc1ccc(C2SCC(=O)N2NC(=O)C(O)c2ccccc2)cc1 (stereo not given)")
"> 100 µM"
>>> result("Oc1c(Cl)cc(CN(Cc2cc(Cl)c(O)c(Cl)c2)C2CCCCC2)cc1Cl")
"> 100 µM"
>>> result("COC1C(O)CC(OC2CC(OC3CC(O[C@@H]4C(=O)c5c(cc6cc(OC7CC(OC8CC(O)C(O)C(C)O8)C(O)C(C)O7)c(C)c(O)c6c5O)C[C@H]4[C@H](OC)C(=O)[C@@H](O)[C@@H](C)O)OC(C)C3O)OC(C)C2O)OC1C (stereo not given in full)")
"0.15 µM"
>>> result("O=C1c2ccccc2C(=O)c2sc(Nc3ccc(Cl)cc3)nc21")
"6.35 µM"
>>> result("C=C(C)CCN(C(=O)OC(C)(C)C)c1cc(C(C)C)co1")
"> 100 µM"
>>> result("Cc1ccc(C2=Nn3c(nc4sc5c(c4c3=O)CCCC5)SC2)cc1")
"> 100 µM"
>>> result("COC(=O)/C=C/C(=O)Nc1cc(Cl)c(Cl)cc1CC(=O)N(C)[C@H]1CCCC[C@@H]1N1CCCC1")
"21.3 µM"
>>> result("O=C(c1ccccc1)c1ccc(O)c2ncccc12")
"13.5 µM"
>>> result("CN1C(=O)C(C#N)C2C[C@@]1(C)Oc1ccccc12 (stereo not given in full)")
"> 100 µM"
>>> result("CC(C)(C)OC(=O)NC(Cc1ccc(OCc2ccccc2)cn1)C(N)=O (stereo not given)")
"> 100 µM"
>>> result("O=C(c1ccc(Cl)c(Cl)c1)N(C(=O)N1CCN(c2ccccc2)CC1)S(=O)(=O)c1ccccc1")
"50.3 µM"
>>> result("OCC#CCCCCOCC#Cc1ccccc1C#CCOCCCCC#CCO")
"> 100 µM"
>>> result("CN(C)CCN=C1Nc2ccccc2C(=O)N2CSCC12 (stereo not given)")
"> 100 µM"
>>> result("Cc1ncc([N+](=O)[O-])n1CCNC(=O)Cn1ccnc1[N+](=O)[O-]")
"> 100 µM"
>>> result("CC(=O)C(N=NC1CCC(S(=O)(=O)NB2N=CS2)CC1)C(=O)Nc1ccccc1C (stereo not given)")
"34 µM"
>>> result("COc1cc(OC)c2nc(C)c3c(c2c1)OCC3")
"> 100 µM"
>>> result("O=[N+]([O-])c1ccc2nc3ccscc-3c2c1")
"> 100 µM"
>>> result("NC1=NCC(c2ccccn2)C1c1ccc(F)cc1 (stereo not given)")
"> 100 µM"

----------
TGI values, listed per item
Test system: RXF 393 renal
Assay: NCI tumour cell line growth inhibition, 48 h
Parameter measured: TGI (µM)

>>> number("Clc1ccc(-c2nc(C(Cl)Cl)nc3cc(-c4ccccc4)nn23)cc1")
1.87
>>> number("COC(=O)c1ccc(NC(N)=NCC(C)(C)COc2ccc(C(F)(F)F)cc2)nc1")
2.96
>>> number("COc1ccc2cc(/C=N\\NC(=O)Nc3ccc([N+](=O)[O-])cc3)ccc2c1")
16.6
>>> number("CN(C)c1cccc(/C=C(\\C#N)c2ccccc2)c1")
4.51
>>> number("C[CH2][Ge]([CH2]C)([CH2]C)[O]C(=O)C([O][Ge]([CH2]C)([CH2]C)[CH2]C)c1ccccc1 (stereo not drawn)")
16.1
>>> number("Cc1ccc(S(=O)(=O)N[C@@H](Cc2ccccc2)C(=O)CCl)cc1")
37.2
>>> number("C=C1C(=O)OC2/C=C(\\C)CC/C=C(\\C)CC(OC(=O)/C(=C/CO)CO)[C@@H]12 (stereo partly drawn)")
21.3
>>> number("CCCCCCCCc1ccc(CCC(N)(CO)CO)cc1")
2.85
>>> number("CNC1=CC(=O)C2=C(C1=O)C1C3=C(C(=O)C(Br)=C(OC)C3=O)C2c2ccccc21 (stereo not drawn)")
2.99
>>> number("Cc1ccc(N(/C=C/C(=O)C(F)(F)F)CC(=O)c2ccc(Cl)c(Cl)c2)cc1")
19
>>> number("O=[N+]([O-])c1cc(Cl)ccc1S(=O)(=O)c1ccc(Cl)cc1[N+](=O)[O-]")
29.5
>>> number("Cc1[nH]c(=O)nc(N/N=C/c2ccc(Cl)cc2)c1C(=O)Nc1ccc(Cl)cc1")
32.9
>>> number("CC(C)c1ccc(/C=N/N=C(N)N)cc1")
16.6
>>> number("CNc1cccc2c1C(C)C[C@]1(C)C(=O)Nc3ccccc3[C@H]21 (stereo partly drawn)")
50
>>> number("Cc1ccccc1C1CC(=O)CC(c2ccccc2C)C12C(=O)NC(=S)NC2=O (stereo not drawn)")
38.8
>>> number("C=C1C(=O)O[C@H]2[C@H]1CC/C(COC(=O)C(=O)c1c[nH]c3ccc(Cl)cc13)=C\\CC[C@@]1(C)O[C@@H]21")
2.79

----------
Test system: BT-549 breast
Test: NCI tumour cell line growth inhibition, 48 h
Parameter measured: TGI

>>> result("N=C1N=C(N)S/C1=C\\c1ccc2ncccc2c1")
"> 25 µM"
>>> result("COC(=O)/C=C1/OC(c2ccc(C)cc2C)=CC1=O")
"29.9 µM"
>>> result("COc1ccc(Nc2ncc(-c3ccccc3)o2)cc1OC")
"> 25 µM"
